pKd values by entry
# tested_target: 5′GAG/3′CCC loop at pri-miR-27a's Drosha site
# protocol_details: Binding affinity by microscale thermophoresis (MST), Cy5-labeled RNA
pKd here: minus log base 10 of the concentration, concentration in moles per litre.

C#CCN(CC(N)=O)C(=O)C[C@H](Cc1c[nH]c2ccccc12)NC(=O)[C@@H]1C[C@H](NC(=O)Cn2c(=O)[nH]c3ccccc3c2=O)CN1 [Compound 9] ... 7.05

Now let's try a different one.
Entry C#CCN(CC(N)=O)C(=O)C1CCN1C(=O)C1CC(N)CN1C(=O)c1ccccc1C(=O)N1CCOCC1 (centres unmarked) [Compound 5] — recorded pKd = 6.15

Value source: patent US20250051762A1
